Data origin, for the record: a melting point compilation (Tetko et al.)

measure name: melting point

COc1cc2nnc(/C=C/C(C)=O)c(-c3ccc(C)o3)c2cc1OC ... 209 to 210 °C
OCc1cn2ccccc2n1 ... 102 to 103 °C
O=C(O)c1ccc2c(c1)CCO2 ... 185 to 188 °C
O=S(=O)(Cl)Cc1ccccc1Br ... 78 to 80 °C

====

In this section, each of the compounds is paired with its reported melting point.
measure name: melting point (°C)

ON=C(NN=C(Cl)C(F)(F)F)C(F)(F)F ... 119
O=C(O)c1cccc(-c2cc[nH]n2)c1 ... 204
CC(=O)OCN1C(=O)NC(c2ccccc2)(c2ccccc2)C1=O ... 158
